// data source = ChEMBL document CHEMBL1126313

- tested-on: UniProt P00784
- Sequence (P00784 whole entry): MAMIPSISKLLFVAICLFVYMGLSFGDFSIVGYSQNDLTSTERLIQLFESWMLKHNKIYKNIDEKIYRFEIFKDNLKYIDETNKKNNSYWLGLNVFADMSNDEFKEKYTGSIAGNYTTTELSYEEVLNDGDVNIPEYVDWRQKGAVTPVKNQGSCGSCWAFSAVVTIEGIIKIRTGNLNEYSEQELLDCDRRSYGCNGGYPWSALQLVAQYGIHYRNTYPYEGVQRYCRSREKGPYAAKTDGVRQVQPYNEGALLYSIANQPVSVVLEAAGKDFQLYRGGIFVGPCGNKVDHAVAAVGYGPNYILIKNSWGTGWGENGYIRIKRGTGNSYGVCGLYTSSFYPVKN
- test-method-notes: The compound was tested for Rate of Inhibition of Papain.
Each record here notes measured ki/Ki.
Kindly provide the numeric value in M⁻¹ s⁻¹ only, without the unit symbol.

Some entries whose results are on file:
> print(dat)
                           molecular.string  recorded.measurement
1     COC(=O)NNC(=O)[C@H](Cc1ccccc1)NC(C)=O                    13
2  CC(=O)N[C@@H](Cc1ccccc1)C(=O)NN(C)C(=O)OCC(C)C                  0.02

Shift focus to the following entry.
Data request: Reported ki/Ki for CC(=O)N[C@@H](Cc1ccccc1)C(=O)NNC(=O)OCC(C)C : what is it?
Data returned: 18
